Catalogue of IC50, neutralisation of retroviral pseudotypes values
- assayed target: hemagglutinin of H5N1 clade 1 strain A/Hong Kong/213/03 (influenza A virus A/Hong Kong/213/03 (H5N1))
- assay: cell-based or functional assay
property measured: IC50, neutralisation of retroviral pseudotypes (µg/mL)

* FLD93 (antibody, V domains shown) VH: WWQLVQSGAEVKKPGSSVKVSCKASGGTFSSYDISWVRQAPGQGLEWMGGIIPIYGTANYAQKFQGRVTITADESTSTAYMELSSLRSEDTAVYYCARAGGDSSGYYGALGRFFQHWGQGTLVTVSS VL: VIWMTQSPSLLSASTGDRVTISCRMSQGISSYLAWYQQKPGKAPELLIHTAYTLKSGVPSRFSGSGSGKDFTLTISGLQSEDFATYYCQQYYSFPYTFGQGTKVEIK | 0.011
* FLD122 (antibody, V domains shown) VH: QFQLVQSGPEVKKPGTSVKVSCKASGYTSTTYGISWVRQVPGQGLEWMGWINPYNGNPHYGQKFQGRVTLTRDTSTNTAYLEILSLRSDDTAVYYCARDGWGQQLVPYYFDYWGQGTLVTVSS VL: DIVMTQSPLSLPVTPGEPASISCRASQSLLHSNGYNYLDWYLQKPGQSPQLLIQLGSTRASGVPDRFSGSGSGTDFTLEISRVEAEDVGVYYCMQALQLPLAFGQGTRLEIK | 0.002
* FLD127 (antibody, V domains shown) VH: QVQLVESGGGVVQPGRSLRLSCAASGFTFSSYGMHWVRQAPGKGLEWVAVIWYDGDNKYYGDSVKGRFTISRDNSKNTLFLQMNSLRAEDTAVYYCAKDTADHGDYVDLGFFDAWGQGTLVTVSS VL: DIQMTQSPSSVSASVGDRVTITCRASQDVSTWLAWYQLKPGKAPKLLIYAASSLQSGVPSRFSGSGSGTDFTLTVSSLQPEDFATYYCQQANSFPFTFGPGTKVDIK | 0.75
* FLD132 (antibody, V domains shown) VH: EVQLVQSGAELKMPGESLKISCKASGYTFTNYWIGWVRQTPGKGLEWMGIIFPPDSQTSYSPSFQGQVTFSVDNSISVAYIQWSSLKASDTAIYYCARSGIFDWSAPLVEAFDIWGQGTVVTVSS VL: DIQLTQSPSFLSASVGDGVTITCRASQDIYIYLAWYQQKPGKAPKLLIYAASTLQGGVPSRFSGSGSGTEFTLTINNLQPEDFATYFCQQLNGYPLTFGGGTKVEIK | 0.0005
* FLD84 (antibody, V domains shown) VH: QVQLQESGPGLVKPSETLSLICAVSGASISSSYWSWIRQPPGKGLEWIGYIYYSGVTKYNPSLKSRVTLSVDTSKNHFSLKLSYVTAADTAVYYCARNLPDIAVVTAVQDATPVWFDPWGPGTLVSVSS VL: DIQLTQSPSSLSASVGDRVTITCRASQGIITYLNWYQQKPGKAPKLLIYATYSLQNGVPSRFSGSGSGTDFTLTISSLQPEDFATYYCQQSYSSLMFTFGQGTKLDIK | 0.014
